TARGET_UNDER_TEST: NS3 (Hepatitis C virus)
Peptide text beside a SMILES is read from it. * marks the point of attachment. X13 = CCCCC[C@H](N*)B1O[C@@H]2C[C@@H]3C[C@@H](C3(C)C)[C@]2(C)O1
READOUT_KIND: Ki (nM)

CC(C)CCC[C@H](NC(=O)[C@@H]1CCCN1C(=O)[C@@H](NC(=O)[C@@H](NC(=O)[C@H](CCC(=O)O)NC(=O)[C@@H](N)CC(=O)O)C(C)C)C(C)C)B1O[C@@H]2C[C@@H]3C[C@@H](C3(C)C)[C@]2(C)O1; 7

A. CCCCC[C@H](NC(=O)[C@@H]1CCCN1C(=O)[C@@H](NC(=O)[C@@H](NC(=O)[C@H](CCC(=O)O)NC(=O)[C@@H](N)CC(=O)O)C(C)C)C(C)C)B1O[C@@H]2C[C@@H]3C[C@@H](C3(C)C)[C@]2(C)O1 (H-DEVVP-X13)
B. CC(C)[C@H](NC(=O)[C@H](CCC(=O)O)NC(=O)[C@@H](N)CC(=O)O)C(=O)N[C@H](C(=O)N1CCC[C@H]1C(=O)N[C@@H](CCc1ccc(C(C)(C)C)cc1)B1O[C@@H]2C[C@@H]3C[C@@H](C3(C)C)[C@]2(C)O1)C(C)C
Enquiry: From the recorded data, which exceeds the other in Ki: A or B ? Pick one; state its label.
Return: A
(A: 12 nM, B: 3 nM)

====

Peptide text beside a SMILES is read from it. * marks the point of attachment. X3 = CC1(C)[C@@H]2C[C@H]3OB([C@H](CCc4cccc(C(F)(F)F)c4)N*)O[C@@]3(C)[C@H]1C2; X1 = CC1(C)[C@@H]2C[C@H]3OB([C@H](CCc4ccccc4F)N*)O[C@@]3(C)[C@H]1C2; X6 = CC1(C)[C@@H]2C[C@H]3OB([C@H](CCCc4ccccc4)N*)O[C@@]3(C)[C@H]1C2; X9 = CC1(C)[C@@H]2C[C@H]3OB([C@@H](N*)c4ccccc4)O[C@@]3(C)[C@H]1C2; X14 = CCCC[C@H](N*)B1O[C@@H]2C[C@@H]3C[C@@H](C3(C)C)[C@]2(C)O1
Consider compounds characterized by their Ki with NS3 (Hepatitis C virus, UniProt A3EZJ3).
READOUT_KIND: Ki (nM)

Consider the worked cases shown below.
CC(C)[C@H](NC(=O)[C@H](CCC(=O)O)NC(=O)[C@@H](N)CC(=O)O)C(=O)N[C@H](C(=O)N1CCC[C@H]1C(=O)N[C@@H](CCc1cccc(C(F)(F)F)c1)B1O[C@@H]2C[C@@H]3C[C@@H](C3(C)C)[C@]2(C)O1)C(C)C (H-DEVVP-X3); 25
CC(C)[C@H](NC(=O)[C@H](CCC(=O)O)NC(=O)[C@@H](N)CC(=O)O)C(=O)N[C@H](C(=O)N1CCC[C@H]1C(=O)N[C@@H](CCCc1ccccc1)B1O[C@@H]2C[C@@H]3C[C@@H](C3(C)C)[C@]2(C)O1)C(C)C (H-DEVVP-X6); 200
Cc1cccc(CC[C@H](NC(=O)[C@@H]2CCCN2C(=O)[C@@H](NC(=O)[C@@H](NC(=O)[C@H](CCC(=O)O)NC(=O)[C@@H](N)CC(=O)O)C(C)C)C(C)C)B2O[C@@H]3C[C@@H]4C[C@@H](C4(C)C)[C@]3(C)O2)c1; 34
CC(C)[C@H](NC(=O)[C@H](CCC(=O)O)NC(=O)[C@@H](N)CC(=O)O)C(=O)N[C@H](C(=O)N1CCC[C@H]1C(=O)N[C@H](B1O[C@@H]2C[C@@H]3C[C@@H](C3(C)C)[C@]2(C)O1)c1ccccc1)C(C)C (H-DEVVP-X9); 900
CC(C)[C@H](NC(=O)[C@H](CCC(=O)O)NC(=O)[C@@H](N)CC(=O)O)C(=O)N[C@H](C(=O)N1CCC[C@H]1C(=O)N[C@@H](CCc1ccc(C(F)(F)F)cc1)B1O[C@@H]2C[C@@H]3C[C@@H](C3(C)C)[C@]2(C)O1)C(C)C; 2

P. CCCC[C@H](NC(=O)[C@@H]1CCCN1C(=O)[C@@H](NC(=O)[C@@H](NC(=O)[C@H](CCC(=O)O)NC(=O)[C@@H](N)CC(=O)O)C(C)C)C(C)C)B1O[C@@H]2C[C@@H]3C[C@@H](C3(C)C)[C@]2(C)O1 (H-DEVVP-X14)
Q. CC(C)[C@H](NC(=O)[C@H](CCC(=O)O)NC(=O)[C@@H](N)CC(=O)O)C(=O)N[C@H](C(=O)N1CCC[C@H]1C(=O)N[C@@H](CCc1ccccc1F)B1O[C@@H]2C[C@@H]3C[C@@H](C3(C)C)[C@]2(C)O1)C(C)C (H-DEVVP-X1)
Enquiry: From the recorded data, which exceeds the other in Ki: P or Q ? Pick one; state its label.
Return: Q
(Q: 18 nM, P: 11 nM)

====

TARGET_UNDER_TEST: Neutrophil elastase (Homo sapiens)
PROCEDURE_SUMMARY: Inhibitory concentration against Human leukocyte Elastase
pIC50: −log10 of the molar value.
READOUT_KIND: pIC50

Consider the worked cases shown below.
CC(C)CCC[C@H](NC(=O)[C@H]1CCCN1C(=O)[C@@H](NC(=O)[C@@H](NC(=O)[C@H](CCC(=O)O)NC(=O)[C@@H](N)CC(=O)O)C(C)C)C(C)C)B1O[C@@H]2C[C@@H]3C[C@@H](C3(C)C)[C@]2(C)O1; 5.14
CC[C@H](NC(=O)[C@H]1CCCN1C(=O)[C@@H](NC(=O)[C@@H](NC(=O)[C@H](CCC(=O)O)NC(=O)[C@@H](N)CC(=O)O)C(C)C)C(C)C)B1O[C@@H]2C[C@@H]3C[C@@H](C3(C)C)[C@]2(C)O1; 7.70

1. CC(C)C[C@H](NC(=O)[C@H]1CCCN1C(=O)[C@@H](NC(=O)[C@@H](NC(=O)[C@H](CCC(=O)O)NC(=O)[C@@H](N)CC(=O)O)C(C)C)C(C)C)B1O[C@@H]2C[C@@H]3C[C@@H](C3(C)C)[C@]2(C)O1
2. Cc1cccc(CC[C@H](NC(=O)[C@H]2CCCN2C(=O)[C@@H](NC(=O)[C@@H](NC(=O)[C@H](CCC(=O)O)NC(=O)[C@@H](N)CC(=O)O)C(C)C)C(C)C)B2O[C@@H]3C[C@@H]4C[C@@H](C4(C)C)[C@]3(C)O2)c1
3. CC(C)[C@H](NC(=O)[C@H](CCC(=O)O)NC(=O)[C@@H](N)CC(=O)O)C(=O)N[C@H](C(=O)N1CCC[C@@H]1C(=O)N[C@@H](CCCCc1ccccc1)B1O[C@@H]2C[C@@H]3C[C@@H](C3(C)C)[C@]2(C)O1)C(C)C
Enquiry: Reorder the items by pIC50, least to greatest. Form entry: labels listed in requested order.
Return: 2, 3, 1

a. CC(C)[C@H](NC(=O)[C@H](CCC(=O)O)NC(=O)[C@@H](N)CC(=O)O)C(=O)N[C@H](C(=O)N1CCC[C@@H]1C(=O)N[C@@H](CCc1ccc(C(C)(C)C)cc1)B1O[C@@H]2C[C@@H]3C[C@@H](C3(C)C)[C@]2(C)O1)C(C)C
b. CC(C)[C@H](NC(=O)[C@H](CCC(=O)O)NC(=O)[C@@H](N)CC(=O)O)C(=O)N[C@H](C(=O)N1CCC[C@@H]1C(=O)N[C@@H](CCc1ccc(Cl)cc1)B1O[C@@H]2C[C@@H]3C[C@@H](C3(C)C)[C@]2(C)O1)C(C)C
Enquiry: // which entry reports the smaller pIC50, a or b ? Pick one; state its label.
Return: b
(b: 5.85, a: 6.47)

====

TARGET_UNDER_TEST: Neutrophil elastase (Homo sapiens, UniProt P08246)
Sequence (P08246 whole entry): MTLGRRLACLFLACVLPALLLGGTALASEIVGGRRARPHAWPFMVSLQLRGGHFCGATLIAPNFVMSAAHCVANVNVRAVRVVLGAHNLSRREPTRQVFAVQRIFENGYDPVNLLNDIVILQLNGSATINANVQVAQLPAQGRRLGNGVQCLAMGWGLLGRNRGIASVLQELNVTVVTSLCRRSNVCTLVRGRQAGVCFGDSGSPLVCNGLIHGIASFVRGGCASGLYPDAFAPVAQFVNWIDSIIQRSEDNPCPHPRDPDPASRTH
PROCEDURE_SUMMARY: Inhibitory concentration against Human leukocyte Elastase
pIC50: −log10 of the molar value.
READOUT_KIND: pIC50

P. CC(C)[C@H](NC(=O)[C@H](CCC(=O)O)NC(=O)[C@@H](N)CC(=O)O)C(=O)N[C@H](C(=O)N1CCC[C@@H]1C(=O)N[C@@H](CCc1ccccc1)B1O[C@@H]2C[C@@H]3C[C@@H](C3(C)C)[C@]2(C)O1)C(C)C
Q. CC(C)[C@H](NC(=O)[C@H](CCC(=O)O)NC(=O)[C@@H](N)CC(=O)O)C(=O)N[C@H](C(=O)N1CCC[C@@H]1C(=O)N[C@@H](CCc1ccc(O)cc1)B1O[C@@H]2C[C@@H]3C[C@@H](C3(C)C)[C@]2(C)O1)C(C)C
Enquiry: From the recorded data, which exceeds the other in pIC50: P or Q ? Pick one; state its label.
Return: Q

a. CC(C)[C@H](NC(=O)[C@H](CCC(=O)O)NC(=O)[C@@H](N)CC(=O)O)C(=O)N[C@H](C(=O)N1CCC[C@@H]1C(=O)N[C@@H](CCc1ccc(C(F)(F)F)cc1)B1O[C@@H]2C[C@@H]3C[C@@H](C3(C)C)[C@]2(C)O1)C(C)C
b. Cc1ccc(CC[C@H](NC(=O)[C@H]2CCCN2C(=O)[C@@H](NC(=O)[C@@H](NC(=O)[C@H](CCC(=O)O)NC(=O)[C@@H](N)CC(=O)O)C(C)C)C(C)C)B2O[C@@H]3C[C@@H]4C[C@@H](C4(C)C)[C@]3(C)O2)cc1
Enquiry: // which entry reports the smaller pIC50, a or b ? Pick one; state its label.
Return: b
(b: 5.30, a: 5.74)
